These entries and their values trace back to the RNAGym collection of RNA variant scans (doi:10.1126/science.aae0568).

B1: tRNA (parent)
chain: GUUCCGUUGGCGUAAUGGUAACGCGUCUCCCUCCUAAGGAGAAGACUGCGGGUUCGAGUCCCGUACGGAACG

variants of: B1; assay: yeast fitness relative to wild type (ratio to wild type); higher = fitter; tRNA-Arg(CCU), competitive growth, 37 C, YPD
Fewer inactive variants are shown than the library holds.
MEASURED_PROPERTY: yeast fitness

Problem: # get_value(readout='yeast fitness', item= A21G U35C A65U )
Result: ≤ 0.5

Problem: Value lookup for yeast fitness; key = U8A G18A U32C
Result: ≤ 0.5

Problem: Name the recorded yeast fitness for G9A C11A C24U C34A A37U C62A C66A .
Result: ≤ 0.5
